- Assay system: SARS-CoV-2 spike protein receptor binding domain (RBD2) (SARS-CoV-2, UniProt P0DTC2 319-537)
- Assay procedure: SPR sandwich binning, ligand E08
Measured property: normalized analyte binding to RBD2 held by the immobilized ligand

Binder | Test result
H05 IgG1 (antibody, V domains shown, also called H5; HO5) VH: QVQLVQSGAEVKKPGSSVKVSCKASGGTFSSYAISWVRQAPGQGLEWMGGIIPIFGTANYAQKFQGRVTITADESTSTAYMELSSLRSEDTAVYYCARSIFGVVIISHADGYYYGMDVWGQGTTVTVSS VL: SYVLTQPPSVSVAPGQTARITCGANNIGRISVHWYQQKPGQAPVLVVYDDSDRPSGIPERFSGSNFGNTATLTISRVEAGDEADYYCQVWDSYSDHVIFGGGTKLTVL | -0.12
G07 IgG1 (antibody, V domains shown) VH: QVQLVQSGAEVKKPGESLKISCKGSGYSFTSYWIGWVRQMPGKGLEWMGIIYPGDSDIRYSPSFQGQVTISADKSFSSAYLQWSSLKASDTAMYYCARLGATGAFDIWGQGTTVTVSS VL: QSVLIQPPSASGTPGQRVTISCSGSNSNFGSNSVSWYQQRPGTAPKLLIEGNNQRPSGVPERFSGSKSGTSASLAISGLQSEDEAEYSCASWDDSLNAFVFGPGTKLTVL | 1.86
F07 IgG1 (antibody, V domains shown) VH: QVQLVQSGAEVKKPGSSVRVSCKVSGYTFTGYYMHWVRQAPGQGLEWMGIINPSGGSTSYAQKFQGRVTMTRDTSTSTVYMELSSLRSEDTAVYYCARVRVGASDAFDIWGQGTMVTVSS VL: SYVLTQPPSVSVAPGQTARITCGGNNIGSKSVHWYQQKPGQAPVLVVYDDSDRPSGIPERFSGSNSGNTATLIISRVEAGDEADYYCQVWDSSSVHYVFGTGTKLTVL | 1.78
S01 IgG1 (antibody, V domains shown, also called 501) VH: QVQLVESGGGLVKPGGSLRLSCAASGFTVGSNYMSWVRQAPGKGLEWVSVIYSGGSTYYADSVKGRFTISRDNSKNTLYLQMNSLRAEDTAVYYCARGSSGAWYFDLWGRGTLVTVSS VL: EIVMTQSPSSLSASVGDSVTITCQASQDISNYLNWYQQKPGKAPKLLIYDASNLETGVPSRFSGGGSGTDFTLTITSLQPEDIATYYCQQYDNFPPTFGPGTKVDIK | 1.79
